Reported k-1 values follow for various molecules
# measured-on: saFabI R40Q/K41N/S44L (Staphylococcus aureus, UniProt Q6GI75, K41N/R40Q/S44L)
# assay-details: 32P-NAD+ dissociation kinetics
# Type: binding
# condition-context: footnote d: 32P-NAD-based dissociation curve fitted to Eq 5

Solved entries:
N#Cc1ccccc1Oc1ccc(Cl)cc1O
0.47 ± 0.08 ^d hr^-1
CCCCCCc1ccc(Oc2ccccc2)c(O)c1
0.13 ± 0.04 ^d hr^-1
CCc1ccc(Oc2ccccc2)c(O)c1
0.72 ± 0.08 ^d hr^-1
CCCc1ccc(Oc2ccccc2)c(O)c1
0.57 ± 0.09 ^d hr^-1
CCCCCc1ccc(Oc2ccccc2)c(O)c1
0.32 ± 0.17 ^d hr^-1

# context switch: different molecule, same k-1
Reported k-1 for saFabI R40Q/K41N/S44L (Staphylococcus aureus, UniProt Q6GI75, K41N/R40Q/S44L), given `Oc1cc(Cl)ccc1Oc1ccccc1` ?
2.13 ± 0.41 ^d hr^-1

====

# measured-on: UniProt:Q6GI75
# assay-details: Forward progress curve kinetics of saFabI inhibition
# Assay type: biochemical
# condition-context: residence time tR = 1/k-1; k-1 from progress curves (b)
The molecules listed here are annotated with their tR.

CCc1ccc(Oc2ccccc2)c(O)c1
63.8 ^b min
Oc1cc(Cl)ccc1Oc1ccccc1
35.3 ^b min
N#Cc1ccccc1Oc1ccc(Br)cc1O
210.9 ^b min
O=[N+]([O-])c1ccc(Oc2ccccc2)c(O)c1
6.6 ^b min

Sample `Cc1ccc(Oc2ccccc2)c(O)c1` — what was its tR?
17.3 ^b min

tR lookup needed for `CCCCCc1ccc(Oc2ccccc2)c(O)c1` , thanks.
300.0 ^b min

Please report the recorded tR for `N#Cc1ccccc1Oc1ccc(Cl)cc1O` .
136.4 ^b min

// query tR value for entry `Oc1ccccc1Oc1ccccc1`
≤ 1 min

Which tR value belongs to `CCCc1ccc(Oc2ccccc2)c(O)c1` ?
60.9 ^b min

====

# measured-on: saFabI R40Q/K41N/S44L (Staphylococcus aureus, UniProt Q6GI75, K41N/R40Q/S44L)
# assay-details: 32P-NAD+ dissociation kinetics
# Format: binding
# condition-context: residence time tR = 1/k-1; k-1 from 32P-NAD dissociation (d)
Readings of tR for the listed compounds

Examples with their reported tR follow.
CCCCCCc1ccc(Oc2ccccc2)c(O)c1 [PT04, 5-hexyl-2-phenoxyphenol]
461.5 ^d min
CCc1ccc(Oc2ccccc2)c(O)c1 [PT01]
83.3 ^d min
CCCc1ccc(Oc2ccccc2)c(O)c1 [PT02]
105.3 ^d min
CCCCCc1ccc(Oc2ccccc2)c(O)c1 [PT03]
187.5 ^d min
N#Cc1ccccc1Oc1ccc(Cl)cc1O [PT447]
127.7 ^d min

Now look at this one.
If you can, please state the reported tR value of Oc1cc(Cl)ccc1Oc1ccccc1 [PT52] .
28.2 ^d min
